Measured CHI Log D, listed per entry for reference.
Procedure summary: CHI Log D procedure
Type: physicochemical
Measurement context: pH 7.4

Answered cases to consult:
IN: Tell me the measured CHI Log D of CC(=O)N1CCC[C@]12CC=CCCCC1(CCCC=CCCCCCC[C@@](C)(C(=O)N[C@@H](Cc3ccccn3)C(=O)N[C@@H](Cc3csc4ccccc34)C(=O)N[C@@H](CCC(N)=O)C(N)=O)NC(=O)[C@H](C(C)C)NC(=O)[C@H](Cc3ccccc3)NC(=O)[C@H](C)NC(=O)[C@H](C)NC(=O)[C@H](CCC(=O)O)NC(=O)[C@H](CC(=O)O)NC1=O)NC(=O)[C@H](C)NC(=O)[C@H](CC(=O)O)NC2=O (some centres unmarked) [I-383] , please.
OUT: 1.859

IN: Return reported CHI Log D; argument: CC(=O)N1CCC[C@]12CC=CCCCC1(CCCC=CCCCCCC[C@@](C)(C(=O)N[C@@H](Cc3ccccc3)C(=O)N[C@@H](Cc3csc4ccccc34)C(=O)N[C@@H](Cc3c[nH]cn3)C(N)=O)NC(=O)[C@H](CC(N)=O)NC(=O)[C@H](Cc3ccccc3)NC(=O)[C@H](C)NC(=O)[C@H](C)NC(=O)[C@H](CCC(=O)O)NC(=O)[C@H](CC(=O)O)NC1=O)NC(=O)[C@H](C)NC(=O)[C@H](CC(=O)O)NC2=O (some centres unmarked) [I-422]
OUT: 2.136

IN: Looking for the measured CHI Log D of CC[C@H](C)[C@@H]1NC(=O)[C@H](CC(=O)O)NC(=O)[C@]2(CC=CCCCC3(CCCC=CCCCCCC[C@@](C)(C(=O)N[C@@H](Cc4ccccc4)C(=O)N[C@@H](Cc4csc5ccccc45)C(=O)N[C@@H](CCC(N)=O)C(N)=O)NC(=O)[C@H](CCC(N)=O)NC(=O)[C@H](Cc4ccccc4)NC(=O)[C@H](C)NC(=O)[C@H](CC(C)C)NC(=O)[C@H](CCC(=O)O)NC(=O)[C@H](CC(=O)O)NC3=O)NC1=O)CCCN2C(C)=O (some centres unmarked) [I-647] , can you help?
OUT: 2.677

IN: # input compound: CC(=O)N1CCC[C@]12CC=CCCCC1(CCCC=CCCCCCC[C@@](C)(C(=O)N[C@@H](Cc3ccsc3)C(=O)N[C@@H](Cc3csc4ccccc34)C(=O)N[C@@H](CCC(N)=O)C(N)=O)NC(=O)[C@H](CC(N)=O)NC(=O)[C@H](Cc3ccccc3)NC(=O)[C@H](C)NC(=O)[C@H](C)NC(=O)[C@H](CC(=O)O)NC(=O)[C@H](CC(=O)O)NC1=O)NC(=O)[C@H](CC(C)(C)C)NC(=O)C[C@H](CC(=O)O)NC2=O (some centres unmarked) [I-1163] ; wanted: its CHI Log D
OUT: 2.059

Now examine the next entry.
IN: Item under review: CC(=O)N1CCC[C@]12CC=CCCCC1(CCCC=CCCCOC(=O)N3CC[C@@](C(=O)N[C@@H](Cc4ccsc4)C(=O)N[C@@H](Cc4csc5ccccc45)C(=O)N[C@@H](CCC(N)=O)C(N)=O)(C3)NC(=O)[C@H](CC(N)=O)NC(=O)[C@H](Cc3ccccc3)NC(=O)[C@H](C)NC(=O)[C@H](C)NC(=O)[C@H](CCC(=O)O)NC(=O)[C@H](CC(=O)O)NC1=O)NC(=O)[C@H](CC(C)(C)C)NC(=O)[C@H](CC(=O)O)NC2=O (some centres unmarked) [I-691] . Reported CHI Log D?
OUT: 2.068
